- Test system: Staphylococcus aureus (Isolate ID ATCC 29213)
- Assay notes: Bacterial assay: MIC by broth microdilution or agar dilution (CLSI), S. aureus ATCC 29213
- Assay type: cell-based
- Assay context: Staphylococcus aureus, ATCC29213, read-out: S. aureus MIC (μg/mL) Activity Range, S. aureus (ATCC29213)
Observable: MIC

>>> print(df.to_string())
                                    molecule  observable  observed_measurement
 0  NC(=O)c1c(F)ccc(OC(CC(CO)CO)c2nc(-c3ccc(C(F)(F)F)cc3)c(Br)o2)c1F (stereo not drawn)         MIC         1 to 16 µg/mL
 1  CN(C)C(=O)c1ccc(-c2nc(C(CO)Oc3ccc(F)c(C(N)=O)c3F)oc2Br)cc1 (stereo not drawn)         MIC            > 16 µg/mL
 2  NC(=O)c1c(F)ccc(O[C@H](CO)c2nc(-c3ccc4occc4c3)c(Br)o2)c1F [Compound 254B]         MIC         1 to 16 µg/mL
 3  NC(=O)c1cccc(OC(CO)c2nc(-c3ccc(C(F)(F)F)cc3)c(Br)o2)c1F (stereo not drawn)         MIC          < 0.25 µg/mL
 4  CNC(=O)CCC(Oc1ccc(F)c(C(N)=O)c1F)c1nc(-c2ccc(C(F)(F)F)cc2)c(Br)o1 (stereo not drawn)         MIC       0.25 to 1 µg/mL
 5  NC(=O)c1c(F)ccc(OC(c2nc(-c3ccc(C(F)(F)F)cc3)c(Br)o2)C(O)CO)c1F (stereo not drawn)         MIC         1 to 16 µg/mL
 6  NC(=O)c1c(F)ccc(OC(CO)c2nc(C3CCOCC3)co2)c1F (stereo not drawn)         MIC            > 16 µg/mL
 7  N#Cc1ccc(-c2nc(C(CO)Oc3ccc(F)c(C(N)=O)c3F)oc2Br)cc1 (stereo not drawn)         MIC         1 to 16 µg/mL
 8  NC(=O)c1c(F)ccc(OC(COC(=O)CCCN2C(=O)c3ccccc3C2=O)c2nc(-c3ccc(C(F)(F)F)cc3)c(Br)o2)c1F (stereo not drawn)         MIC       0.25 to 1 µg/mL
 9  NC(=O)c1c(F)ccc(O[C@H](COC(=O)CCC(=O)O)c2nc(-c3ccc(C(F)(F)F)cc3)c(Br)o2)c1F         MIC         1 to 16 µg/mL
10  C[C@@H](Oc1ccc(F)c(C(N)=O)c1F)c1nc(-c2ccc(C(F)(F)F)cc2)c(Br)o1         MIC          < 0.25 µg/mL
11  COc1ccc(-c2coc([C@H](C)Oc3ccc(F)c(C(N)=O)c3F)n2)cc1 [Compound 268A]         MIC            > 16 µg/mL
12  COc1ccc(-c2csc(C(CO)Oc3ccc(F)c(C(N)=O)c3F)n2)cc1 (stereo not drawn)         MIC         1 to 16 µg/mL
13  CC(=O)OCC(Oc1ccc(F)c(C(N)=O)c1F)c1nc(-c2ccc(Cl)cc2)c(Cl)o1 (stereo not drawn)         MIC       0.25 to 1 µg/mL
14  COc1cc(CNC(=O)OCC(Oc2ccc(F)c(C(N)=O)c2F)c2nc(-c3ccc(C(F)(F)F)cc3)c(Br)o2)ccn1 (stereo not drawn)         MIC       0.25 to 1 µg/mL
15  CC(Oc1ccc(F)c(C(N)=O)c1F)c1nc(Br)c(-c2ccc(C(F)(F)F)cc2)o1 (stereo not drawn)         MIC         1 to 16 µg/mL
16  CNC(=O)CC(Oc1ccc(F)c(C(N)=O)c1F)c1nc(-c2ccc(C(F)(F)F)cc2)c(Br)o1 (stereo not drawn)         MIC       0.25 to 1 µg/mL
17  NC(=O)c1c(F)ccc(OC(CO)c2nc(Br)c(-c3ccc(C(F)(F)F)cc3)o2)c1F (stereo not drawn)         MIC         1 to 16 µg/mL
18  NC(=O)c1c(F)ccc(OC(CO)c2nc(-c3ccc(N4CCCC4)c(Br)c3)c(Br)o2)c1F (stereo not drawn)         MIC         1 to 16 µg/mL
19  NC(=O)c1c(F)ccc(O[C@H](CO)c2nc(-c3ccc(Cl)s3)c(Br)o2)c1F [Compound 250B]         MIC          < 0.25 µg/mL
20  NC(=O)c1c(F)ccc(OC(COC(=O)CCN2C(=O)c3ccccc3C2=O)c2nc(-c3ccc(C(F)(F)F)cc3)c(Br)o2)c1F (stereo not drawn)         MIC          < 0.25 µg/mL
21  C=CCc1oc(C(CO)Oc2ccc(F)c(C(N)=O)c2F)nc1-c1ccc(C(F)(F)F)cc1 (stereo not drawn)         MIC         1 to 16 µg/mL
22  NC(=O)c1c(F)ccc(OC(CO)c2nc(-c3ccc(F)c(F)c3)c(Br)o2)c1F (stereo not drawn)         MIC         1 to 16 µg/mL
23  NC(=O)c1c(F)ccc(OC(CO)c2nc(-c3ccccc3F)co2)c1F (stereo not drawn)         MIC            > 16 µg/mL
24  Cc1c(CNC(=O)OCC(Oc2ccc(F)c(C(N)=O)c2F)c2nc(-c3ccc(C(F)(F)F)cc3)c(Br)o2)cnn1C (stereo not drawn)         MIC       0.25 to 1 µg/mL
25  CC(=O)OCC(Oc1ccc(F)c(C(N)=O)c1F)c1nc(-c2ccc(OC(F)(F)F)cc2)c(Br)o1 (stereo not drawn)         MIC          < 0.25 µg/mL
26  NC(=O)c1c(F)ccc(OC(COC(=O)NCCO)c2nc(-c3ccc(C(F)(F)F)cc3)c(Br)o2)c1F (stereo not drawn)         MIC       0.25 to 1 µg/mL
27  Cc1ccc(-c2nc(C(CO)Oc3ccc(F)c(C(N)=O)c3F)oc2Br)s1 (stereo not drawn)         MIC         1 to 16 µg/mL
28  CCCc1oc(C(C)Oc2ccc(F)c(C(N)=O)c2F)nc1-c1ccc(OC(F)(F)F)cc1 (stereo not drawn)         MIC          < 0.25 µg/mL
29  Cn1c(CNC(=O)OCC(Oc2ccc(F)c(C(N)=O)c2F)c2nc(-c3ccc(C(F)(F)F)cc3)c(Br)o2)nc2ccccc21 (stereo not drawn)         MIC       0.25 to 1 µg/mL

* * *

- Tested on: Staphylococcus aureus (Isolate ID ATCC 29213)
- Assay notes: Bacterial assay: MIC by broth microdilution or agar dilution (CLSI), S. aureus ATCC 29213
- Format: cell-based
- Assay context: Staphylococcus aureus, ATCC29213, read-out: S. aureus MIC (μg/mL) Activity Range, S. aureus (ATCC29213)
Observable: MIC

>>> df
                                   compound  observed_measurement
0  Cc1ncccc1CNC(=O)OCC(Oc1ccc(F)c(C(N)=O)c1F)c1nc(-c2ccc(C(F)(F)F)cc2)c(Br)o1 (stereo not shown)       0.25 to 1 µg/mL
1  CCOc1cc2nc(C(C)Oc3ccc(F)c(C(N)=O)c3F)sc2nc1Br (stereo not shown)       0.25 to 1 µg/mL
2  N#Cc1ccc(-c2nc(C(CO)Oc3ccc(F)c(C(N)=O)c3F)oc2Br)s1 (stereo not shown)       0.25 to 1 µg/mL
3  CS(=O)(=O)OCC(Oc1ccc(F)c(C(N)=O)c1F)c1nc(-c2ccc(C(F)(F)F)cc2)c(Cl)o1 (stereo not shown)         1 to 16 µg/mL

* * *

Each record here notes measured MIC.
- Tested on: Staphylococcus aureus (Isolate ID ATCC 29213)
- Assay notes: Bacterial assay: MIC by broth microdilution or agar dilution (CLSI), S. aureus ATCC 29213
- Assay type: cell-based
- Assay context: Staphylococcus aureus, ATCC29213, read-out: S. aureus MIC (μg/mL) Activity Range, S. aureus (ATCC29213)
- Procedure: Compounds are tested for antimicrobial activity by susceptibility testing in liquid or on solid media. […] Compound MICs were determined to be in the following activity ranges “A” activity≦0.25 μg/mL; “B” activity>0.25 μg/mL-1.0 μg/mL; “C” activity>1.0 μg/mL-16 μg/mL; “D” activity>16 μg/mL and ND=not determined. […]
Observable: MIC

                                    compound  observed_measurement
 0  NC(=O)c1c(F)ccc(O[C@H](CO)c2nc(-c3ccc(C(F)(F)F)cc3)c(Br)o2)c1F (single isomer, unassigned) [Compound 38B]          < 0.25 µg/mL
 1  CCOC(=O)CCC(=O)OCC(Oc1ccc(F)c(C(N)=O)c1F)c1nc(-c2ccc(C(F)(F)F)cc2)c(Cl)o1 (stereo not drawn) [Compound 56]       0.25 to 1 µg/mL
 2  C=CCc1oc(C(CC)Oc2ccc(F)c(C(N)=O)c2F)nc1-c1ccc(Cl)cc1 (stereo not drawn) [Compound 22]         1 to 16 µg/mL
 3  CC(=O)OCC(Oc1ccc(F)c(C(N)=O)c1F)c1nc(-c2ccc(C(F)(F)F)cc2)c(Br)o1 (stereo not drawn) [Compound 37]       0.25 to 1 µg/mL
 4  CCCc1oc(C(C)Oc2ccc(F)c(C(N)=O)c2F)nc1-c1ccc(OC)cc1 (stereo not drawn) [Compound 15]       0.25 to 1 µg/mL
 5  NC(=O)c1c(F)ccc(OC(COC(=O)CCC(=O)O)c2nc(-c3ccc(F)cc3F)c(Br)o2)c1F (stereo not drawn) [Compound 263]         1 to 16 µg/mL
 6  NC(=O)c1c(F)ccc(OC(CO)c2nc(-c3ccc(O)cc3)c(Br)o2)c1F (stereo not drawn) [Compound 110]            > 16 µg/mL
 7  CN(Cc1cccnc1)C(=O)OCC(Oc1ccc(F)c(C(N)=O)c1F)c1nc(-c2ccc(C(F)(F)F)cc2)c(Br)o1 (stereo not drawn) [Compound 185]       0.25 to 1 µg/mL
 8  Cc1nnc(C(Oc2ccc(F)c(C(N)=O)c2F)c2nc(-c3ccc(C(F)(F)F)cc3)co2)o1 (stereo not drawn) [Compound 218]            > 16 µg/mL
 9  CCC(Oc1ccc(F)c(C(N)=O)c1F)c1nc(CCOC(C)=O)oc1Br (stereo not drawn) [Compound 121]            > 16 µg/mL
10  CC(Oc1ccc(F)c(C(N)=O)c1F)c1nc(-c2ccc(C(F)(F)F)nc2)c(Cl)o1 (stereo not drawn) [Compound 50]         1 to 16 µg/mL
11  C=CCCC(Oc1ccc(F)c(C(N)=O)c1F)c1nc(-c2ccc(C(F)(F)F)cc2)c(Br)o1 (stereo not drawn) [Compound 124]         1 to 16 µg/mL
12  NC(=O)c1c(F)ccc(OC(CO)c2nc(-c3ccc(Cl)cc3)c(Br)o2)c1F (stereo not drawn) [Compound 39]          < 0.25 µg/mL
13  CC(=O)OCC(Oc1ccc(F)c(C(N)=O)c1F)c1nc(-c2ccc(C(F)(F)F)cc2)sc1Br (stereo not drawn) [Compound 130]            > 16 µg/mL
14  NC(=O)c1c(F)ccc(OC(CC(=O)O)c2nc(-c3ccc(C(F)(F)F)cc3)c(Br)o2)c1F (stereo not drawn) [Compound 77]            > 16 µg/mL

Numbers sourced from patent US9511073B2.
